- System: SK-MEL-2 melanoma
- test-description: NCI tumour cell line growth inhibition, 48 h
Each entry below carries its recorded TGI.

COC(=O)c1cc2ccccc2c2c3c(ccc12)OCO3: 334 µM
Cn1c(N)nc(-c2ccc(Cl)cc2)c1SSc1c(-c2ccc(Cl)cc2)nc(N)n1C: 32.1 µM
CSc1nc2c(c(=O)[nH]1)N=C(c1ccccc1)CC(c1ccccc1)N2 (stereo not given): 76.7 µM

Now for another entry.
Prompt: Which TGI reading was recorded for the compound O=C(NC(=Nc1ccccc1)SCCSC(=Nc1ccccc1)NC(=O)c1cccs1)c1cccs1 ?
Completion: > 100 µM

====

- Test system: NCI/ADR-RES ovarian
- test-description: NCI tumour cell line growth inhibition, 48 h
quantity-measured: TGI

Past entries and their recorded results:
CC1(C)[C@@H]2C[C@H]1c1cnc(-c3ccccn3)cc1C2CCCCC[C@@H]1c2cc(-c3ccccn3)ncc2[C@@H]2C[C@H]1C2(C)C (stereo partly specified): > 100 µM
COC(=O)C12OC3CO[Si](C(C)C)(C(C)C)O[Si](C(C)C)(C(C)C)OC3C1Oc1nc(=O)ccn12 (stereo unspecified): 29.2 µM

Prompt: Which TGI reading was recorded for the molecule N#CSCc1ccc(Cl)c(CSC#N)c1 ?
Completion: > 60.9 µM

Prompt: Which TGI reading was recorded for the molecule O=C(OCCNC(=O)N1CC1)OCCNC(=O)N1CC1 ?
Completion: > 10 µM

Prompt: Which TGI reading was recorded for the molecule Nc1c(C(=O)c2cccc(C#CCO)c2)cnn1-c1ccc(F)cc1 ?
Completion: > 25 µM

Prompt: Which TGI reading was recorded for the molecule COc1ccc(-c2c(C#N)c(S)n(NS(=O)(=O)c3ccccc3)c(=O)c2C#N)cc1 ?
Completion: > 100 µM
